Ref: PubChem BioAssay

// values below are reported inhibition
- MEASURED_TARGET: 6-phosphogluconate dehydrogenase, decarboxylating (Homo sapiens) (UniProt P52209)
- Sequence (P52209 whole entry, looked up): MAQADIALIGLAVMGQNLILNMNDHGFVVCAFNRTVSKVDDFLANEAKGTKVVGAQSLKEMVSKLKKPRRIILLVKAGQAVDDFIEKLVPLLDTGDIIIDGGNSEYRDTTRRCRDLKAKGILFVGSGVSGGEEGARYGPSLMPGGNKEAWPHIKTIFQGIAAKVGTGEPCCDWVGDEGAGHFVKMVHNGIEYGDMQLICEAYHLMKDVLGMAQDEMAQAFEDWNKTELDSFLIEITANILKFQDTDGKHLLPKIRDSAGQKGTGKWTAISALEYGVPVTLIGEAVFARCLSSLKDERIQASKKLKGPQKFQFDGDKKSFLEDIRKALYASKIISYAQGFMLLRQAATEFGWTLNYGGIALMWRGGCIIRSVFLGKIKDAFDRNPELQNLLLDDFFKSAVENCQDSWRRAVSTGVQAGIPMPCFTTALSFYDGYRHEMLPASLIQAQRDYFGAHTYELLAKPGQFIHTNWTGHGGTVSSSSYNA
- MEASUREMENT_DESCRIPTION: 6PGD enzyme inhibitors, primary screen, biochemical, human, recombinant enzyme, NADPH absorbance (AID 1159550)
- RECORDED_CONDITIONS: recombinant 6PGD, NADPH absorbance 341 nm; at 10 µM; hits give high values
QUANTITY_NAME: inhibition (%)

{"COMPOUND": "CN1C[C@H](C(=O)N[C@]2(C)O[C@@]3(O)[C@@H]4CCCN4C(=O)[C@H](Cc4ccccc4)N3C2=O)C[C@@H]2c3cccc4[nH]cc(c34)C[C@H]21", "QUANTITATIVE_RESULT": 6.21}
{"COMPOUND": "O=C(O)C(O)C(O)C(=O)O (stereo not drawn)", "QUANTITATIVE_RESULT": 6.59}
{"COMPOUND": "COc1cc(C)c(C(=O)Oc2cc(C)c(C(=O)O)c(O)c2C)c(OC)c1C", "QUANTITATIVE_RESULT": 17.4}
{"COMPOUND": "COc1ccc(-c2coc3cc(O)c(OC)cc3c2=O)cc1", "QUANTITATIVE_RESULT": 10.5}
{"COMPOUND": "O=C(O)C=CC=Cc1ccccc1", "QUANTITATIVE_RESULT": 8.52}
{"COMPOUND": "C=C1C(=O)O[C@H]2[C@H]1CC/C(C)=C/CC[C@@]1(C)O[C@@H]21", "QUANTITATIVE_RESULT": 4.61}
{"COMPOUND": "O=c1c(O)cc([C@H]2Oc3cc(O)cc(O)c3C[C@H]2O)cc2c([C@H]3Oc4cc(O)cc(O)c4C[C@H]3O)cc(O)c(O)c12", "QUANTITATIVE_RESULT": 31.2}
{"COMPOUND": "O=C(Nc1ccccc1)Nc1ccccc1", "QUANTITATIVE_RESULT": 0.726}
{"COMPOUND": "CC[C@H](C(=O)[C@@H](C)[C@@H](O)[C@H](C)[C@@H]1O[C@@H]([C@@H](CC)C(=O)O)[C@@H](C)C[C@@H]1C)[C@H]1O[C@]2(C=C[C@@H](O)[C@]3(CC[C@@](C)([C@H]4CC[C@](O)(CC)[C@H](C)O4)O3)O2)[C@H](C)C[C@@H]1C", "QUANTITATIVE_RESULT": -15.5}
{"COMPOUND": "COC(=O)[C@]1(C)CC[C@]2(C)CC[C@]3(C)C4=CCc5c(cc(OC(C)=O)c(OC(C)=O)c5C)[C@]4(C)CC[C@@]3(C)[C@@H]2C1", "QUANTITATIVE_RESULT": 10.1}
{"COMPOUND": "CC1CCCC(C)N1NC(=O)c1ccc(Cl)c(S(N)(=O)=O)c1 (stereo not drawn)", "QUANTITATIVE_RESULT": 6.91}
{"COMPOUND": "NCCCC(N)CC(=O)NCC1NC(=O)C(CO)NC(=O)C(N)CNC(=O)C(C2CCNC(N)=N2)NC(=O)/C(=C/NC(N)=O)NC1=O (stereo not drawn)", "QUANTITATIVE_RESULT": -0.986}
{"COMPOUND": "O=c1c(O)c(-c2ccccc2)oc2ccccc12", "QUANTITATIVE_RESULT": 1.99}
{"COMPOUND": "CC1(C)[C@@H](O)CC[C@]2(C)[C@H]3C(=O)C=C4[C@H]5C[C@@](C)(C(=O)O)CC[C@]5(C)CC[C@@]4(C)[C@]3(C)CC[C@@H]12", "QUANTITATIVE_RESULT": -38.1}
{"COMPOUND": "C[n+]1cccc(C(=O)[O-])c1", "QUANTITATIVE_RESULT": -5.32}
{"COMPOUND": "COc1ccc(C(=O)/C=C/c2ccccc2)cc1", "QUANTITATIVE_RESULT": 8.83}
{"COMPOUND": "C=C1CC[C@H](O)C/C1=C/C=C1\\CCC[C@]2(C)[C@@H]([C@H](C)/C=C/[C@H](C)C(C)C)CC[C@@H]12", "QUANTITATIVE_RESULT": 12.3}
{"COMPOUND": "CC(Oc1ccccc1)C(=O)N[C@@H]1C(=O)N2[C@@H]1SC(C)(C)[C@@H]2C(=O)O (stereo partly drawn)", "QUANTITATIVE_RESULT": 1.89}
{"COMPOUND": "CC1NC(=O)NC1=O (stereo not drawn)", "QUANTITATIVE_RESULT": -12}
{"COMPOUND": "CC1(C)C2CC(=O)O[C@@]3(C)C4=CC(=O)O[C@@H](c5ccoc5)[C@]4(C)CCC3[C@@]2(C)C=C[C@H]1O (stereo partly drawn)", "QUANTITATIVE_RESULT": 9.39}
{"COMPOUND": "CC(C)c1ccc2c(c1)CCC1[C@](C)(CN)CCC[C@]21C (stereo partly drawn)", "QUANTITATIVE_RESULT": 0.884}
{"COMPOUND": "CSCCC(NC=O)C(=O)NC(C)C(=O)O (stereo not drawn)", "QUANTITATIVE_RESULT": 11.9}
{"COMPOUND": "O=C(/C=C/c1ccccc1)c1ccc(O[C@@H]2O[C@H](CO)[C@@H](O)[C@H](O)[C@H]2O)cc1O", "QUANTITATIVE_RESULT": 4.22}
{"COMPOUND": "C#CCCCCCCCCCCCC(O)CC(O)CO (stereo not drawn)", "QUANTITATIVE_RESULT": 6.35}
{"COMPOUND": "CC(=O)OC1CCC2(C)C(CCC3(C)C2CC=C2C4CC(C)(C)CCC4(C)CCC23C)C1(C)C (stereo not drawn)", "QUANTITATIVE_RESULT": 3.75}
{"COMPOUND": "CC(C)[C@@H]1CC[C@@H](C)CC1=O", "QUANTITATIVE_RESULT": 15.9}
{"COMPOUND": "C=CCCCCCCCCCCC[C@@H](O)C[C@@H](O)CO", "QUANTITATIVE_RESULT": -7.76}
{"COMPOUND": "CC(=O)O[C@H]1CCC2(C)C(=CCC3C2CCC2(C)C3CC3OC4(CCC(C)CO4)C(C)C32)C1 (stereo partly drawn)", "QUANTITATIVE_RESULT": -0.838}
{"COMPOUND": "O=C(Oc1cc(O)cc2c1C[C@@H](OC(=O)c1cc(O)c(O)c(O)c1)[C@@H](c1cc(O)c(O)c(O)c1)O2)c1cc(O)c(O)c(O)c1", "QUANTITATIVE_RESULT": 10.8}
{"COMPOUND": "NCCCCC(=O)O", "QUANTITATIVE_RESULT": -7.89}
{"COMPOUND": "CC(C)=CCc1c(O)cc2oc(C)cc(=O)c2c1O", "QUANTITATIVE_RESULT": 8.51}
{"COMPOUND": "O=C(O[C@@H]1Cc2c(O)cc(O)cc2O[C@@H]1c1ccc(O)c(O)c1)c1cc(O)c(O)c(O)c1", "QUANTITATIVE_RESULT": 5.78}
{"COMPOUND": "CC(C)C1=CC2=CC[C@@H]3[C@](C)(CCC[C@@]3(C)C(=O)O)[C@H]2CC1", "QUANTITATIVE_RESULT": -6.38}
{"COMPOUND": "Cc1cc(=O)c2c(O)c3c(cc2o1)OC(C)(C)CC3", "QUANTITATIVE_RESULT": 3.81}
{"COMPOUND": "Cn1nnnc1SCC1=C(C(=O)O)N2C(=O)C(NC(=O)C(OC=O)c3ccccc3)C2SC1 (stereo not drawn)", "QUANTITATIVE_RESULT": 0.99}
{"COMPOUND": "CC(=O)OC1CCC2(C)C(CC(OC(C)=O)C3(C)C2CCC2(C)C(c4ccoc4)OC(=O)C4OC423)C1(C)C (stereo not drawn)", "QUANTITATIVE_RESULT": -7.87}
{"COMPOUND": "Nc1ccn([C@@H]2O[C@H](CO)[C@@H](O)[C@H]2O)c(=O)n1", "QUANTITATIVE_RESULT": -4.47}
{"COMPOUND": "N#Cc1ccc2c(c1)N(CCCN1CCC(O)CC1)c1ccccc1S2", "QUANTITATIVE_RESULT": -2.33}
